B1: LRRC45 (parent)
chain: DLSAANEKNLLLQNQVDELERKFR

- Variants of: B1
- experiment.summary: protein stability index of a GFP-peptide fusion (GPS, HEK-293T) (PSI 1-6); higher = more stable;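 further: lentivirally expressed fusions sorted by FACS into six bins by GFP to DsRed ratio, PSI derived from sequencing read proportions per bin multiplied by bin number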
- recorded.conditions: c terminus: a fixed tail appended
Consider the following variants and their measured protein stability index readings.
Hey, just send me the number, nothing else.

Examples from the recorded data:
mutations | measure.name | recorded.value
R21V | protein stability index | 4.05
A5Q | protein stability index | 3.9
E7R | protein stability index | 3.84
K8C | protein stability index | 3.83
A5I | protein stability index | 4.02
E18T | protein stability index | 3.7

Ask: Let me know recorded protein stability index for `S3I` , thanks.
Reply: 3.51

Ask: Let me know recorded protein stability index for `L2K` , thanks.
Reply: 5.06
